The measured values listed here are drawn from ChEMBL document CHEMBL1671662.

# Tested on: Prevotella nigrescens
# test details: Antibacterial activity against Prevotella nigrescens by CLSI M11-A6 agar dilution method
# Type: functional
Readings of MIC50 for the listed compounds

smiles entry: CCCCCCCCCCNCCN[C@@]1(C)C[C@H](O[C@H]2[C@H](Oc3c4cc5cc3Oc3ccc(cc3Cl)[C@@H](O)[C@@H](NC(=O)[C@@H](CC(C)C)NC)C(=O)N[C@@H](CC(N)=O)C(=O)N[C@H]5C(=O)N[C@H]3C(=O)N[C@H](C(=O)N[C@H](C(=O)O)c5cc(O)c(CNCP(=O)(O)O)c(O)c5-c5cc3ccc5O)[C@H](O)c3ccc(c(Cl)c3)O4)O[C@H](CO)[C@@H](O)[C@@H]2O)O[C@@H](C)[C@H]1O
target or test system: Prevotella nigrescens
result value: 8 µg/mL
//
smiles entry: CN[C@H](CC(C)C)C(=O)N[C@H]1C(=O)N[C@@H](CC(N)=O)C(=O)N[C@H]2C(=O)N[C@H]3C(=O)N[C@H](C(=O)N[C@H](C(=O)O)c4cc(O)cc(O)c4-c4cc3ccc4O)[C@H](O)c3ccc(c(Cl)c3)Oc3cc2cc(c3O[C@@H]2O[C@H](CO)[C@@H](O)[C@H](O)[C@H]2O[C@H]2C[C@](C)(N)[C@H](O)[C@H](C)O2)Oc2ccc(cc2Cl)[C@H]1O
target or test system: Prevotella nigrescens
result value: 32 µg/mL

Please look at the following compound next.
// MIC50 lookup, key: `Cc1ncc([N+](=O)[O-])n1CCO`
0.5 µg/mL

----------
# Tested on: Clostridium tertium
# test details: Antibacterial activity against Clostridium tertium by CLSI M11-A6 agar dilution method
# Assay type: functional
property measured: MIC50 (µg/mL)
Could you give me the number in µg/mL? Just the number is fine.

# example entries with known answers
molecule: CC(=O)NC[C@H]1CN(c2ccc(N3CCOCC3)c(F)c2)C(=O)O1 [LINEZOLID]
target or test system: Clostridium tertium
property measured: MIC50
unit abbreviation: µg/mL
result value: 2
//
molecule: CCCCCCCCCC(=O)N[C@@H](Cc1c[nH]c2ccccc12)C(=O)N[C@H](CC(N)=O)C(=O)N[C@@H](CC(=O)O)C(=O)N[C@@H]1C(=O)NCC(=O)N[C@@H](CCCN)C(=O)N[C@@H](CC(=O)O)C(=O)N[C@H](C)C(=O)N[C@@H](CC(=O)O)C(=O)NCC(=O)N[C@H](CO)C(=O)N[C@@H]([C@H](C)CC(=O)O)C(=O)N[C@@H](CC(=O)c2ccccc2N)C(=O)O[C@@H]1C
target or test system: Clostridium tertium
property measured: MIC50
unit abbreviation: µg/mL
result value: 1
//
molecule: Cc1ncc([N+](=O)[O-])n1CCO [METRONIDAZOLE]
target or test system: Clostridium tertium
property measured: MIC50
unit abbreviation: µg/mL
result value: 0.25

Please look at the following molecule next.
// MIC50 lookup, key: CN[C@H](CC(C)C)C(=O)N[C@H]1C(=O)N[C@@H](CC(N)=O)C(=O)N[C@H]2C(=O)N[C@H]3C(=O)N[C@H](C(=O)N[C@H](C(=O)O)c4cc(O)cc(O)c4-c4cc3ccc4O)[C@H](O)c3ccc(c(Cl)c3)Oc3cc2cc(c3O[C@@H]2O[C@H](CO)[C@@H](O)[C@H](O)[C@H]2O[C@H]2C[C@](C)(N)[C@H](O)[C@H](C)O2)Oc2ccc(cc2Cl)[C@H]1O [VANCOMYCIN]
1

----------
# Tested on: Enterocloster clostridioformis
# test details: Antibacterial activity against Clostridium clostridioforme by CLSI M11-A6 agar dilution method
# Assay type: functional
property measured: MIC50 (µg/mL)
Could you give me the number in µg/mL? Just the number is fine.

For the record CCCCCCCCCCNCCN[C@@]1(C)C[C@H](O[C@H]2[C@H](Oc3c4cc5cc3Oc3ccc(cc3Cl)[C@@H](O)[C@@H](NC(=O)[C@@H](CC(C)C)NC)C(=O)N[C@@H](CC(N)=O)C(=O)N[C@H]5C(=O)N[C@H]3C(=O)N[C@H](C(=O)N[C@H](C(=O)O)c5cc(O)c(CNCP(=O)(O)O)c(O)c5-c5cc3ccc5O)[C@H](O)c3ccc(c(Cl)c3)O4)O[C@H](CO)[C@@H](O)[C@@H]2O)O[C@@H](C)[C@H]1O [TELAVANCIN] , what value of MIC50 is listed for Enterocloster clostridioformis?
4

----------
# Tested on: Prevotella intermedia
# test details: Antibacterial activity against Prevotella intermedia by CLSI M11-A6 agar dilution method
# Type: functional
Readings of MIC50 for the listed compounds
Could you give me the number in µg/mL? Just the number is fine.

smiles entry: CN[C@H](CC(C)C)C(=O)N[C@H]1C(=O)N[C@@H](CC(N)=O)C(=O)N[C@H]2C(=O)N[C@H]3C(=O)N[C@H](C(=O)N[C@H](C(=O)O)c4cc(O)cc(O)c4-c4cc3ccc4O)[C@H](O)c3ccc(c(Cl)c3)Oc3cc2cc(c3O[C@@H]2O[C@H](CO)[C@@H](O)[C@H](O)[C@H]2O[C@H]2C[C@](C)(N)[C@H](O)[C@H](C)O2)Oc2ccc(cc2Cl)[C@H]1O
unit abbreviation: µg/mL
result value: 32

Please look at the following compound next.
// MIC50 lookup, key: `CC(=O)NC[C@H]1CN(c2ccc(N3CCOCC3)c(F)c2)C(=O)O1`
2

----------
# Tested on: Parabacteroides merdae
# test details: Antibacterial activity against Parabacteroides merdae by CLSI M11-A6 agar dilution method
# Type: functional
Readings of MIC50 for the listed compounds

# example entries with known answers
compound: Cc1ncc([N+](=O)[O-])n1CCO [METRONIDAZOLE]
target or test system: Parabacteroides merdae
MIC50: 1 µg/mL
--
compound: CC(=O)NC[C@H]1CN(c2ccc(N3CCOCC3)c(F)c2)C(=O)O1 [LINEZOLID]
target or test system: Parabacteroides merdae
MIC50: 4 µg/mL
--
compound: CCCCCCCCCCNCCN[C@@]1(C)C[C@H](O[C@H]2[C@H](Oc3c4cc5cc3Oc3ccc(cc3Cl)[C@@H](O)[C@@H](NC(=O)[C@@H](CC(C)C)NC)C(=O)N[C@@H](CC(N)=O)C(=O)N[C@H]5C(=O)N[C@H]3C(=O)N[C@H](C(=O)N[C@H](C(=O)O)c5cc(O)c(CNCP(=O)(O)O)c(O)c5-c5cc3ccc5O)[C@H](O)c3ccc(c(Cl)c3)O4)O[C@H](CO)[C@@H](O)[C@@H]2O)O[C@@H](C)[C@H]1O [TELAVANCIN]
target or test system: Parabacteroides merdae
MIC50: > 64 µg/mL

Please look at the following compound next.
// MIC50 lookup, key: CN[C@H](CC(C)C)C(=O)N[C@H]1C(=O)N[C@@H](CC(N)=O)C(=O)N[C@H]2C(=O)N[C@H]3C(=O)N[C@H](C(=O)N[C@H](C(=O)O)c4cc(O)cc(O)c4-c4cc3ccc4O)[C@H](O)c3ccc(c(Cl)c3)Oc3cc2cc(c3O[C@@H]2O[C@H](CO)[C@@H](O)[C@H](O)[C@H]2O[C@H]2C[C@](C)(N)[C@H](O)[C@H](C)O2)Oc2ccc(cc2Cl)[C@H]1O [VANCOMYCIN]
128 µg/mL

----------
# System: Streptococcus constellatus
# test details: Antibacterial activity against Streptococcus constellatus by CLSI M11-A6 agar dilution method
# Type: functional
property measured: MIC90 (µg/mL)
Could you give me the number in µg/mL? Just the number is fine.

smiles entry: CN[C@H](CC(C)C)C(=O)N[C@H]1C(=O)N[C@@H](CC(N)=O)C(=O)N[C@H]2C(=O)N[C@H]3C(=O)N[C@H](C(=O)N[C@H](C(=O)O)c4cc(O)cc(O)c4-c4cc3ccc4O)[C@H](O)c3ccc(c(Cl)c3)Oc3cc2cc(c3O[C@@H]2O[C@H](CO)[C@@H](O)[C@H](O)[C@H]2O[C@H]2C[C@](C)(N)[C@H](O)[C@H](C)O2)Oc2ccc(cc2Cl)[C@H]1O
unit abbreviation: µg/mL
result value: 2

// MIC90 lookup, key: `CCC[C@@H]1C[C@@H](C(=O)N[C@@H]([C@H]2O[C@H](SC)[C@H](O)[C@@H](O)[C@H]2O)[C@H](C)Cl)N(C)C1`
0.5

And the next one, `CC(=O)NC[C@H]1CN(c2ccc(N3CCOCC3)c(F)c2)C(=O)O1` ?
4

And the next one, `CCCCCCCCCC(=O)N[C@@H](Cc1c[nH]c2ccccc12)C(=O)N[C@H](CC(N)=O)C(=O)N[C@@H](CC(=O)O)C(=O)N[C@@H]1C(=O)NCC(=O)N[C@@H](CCCN)C(=O)N[C@@H](CC(=O)O)C(=O)N[C@H](C)C(=O)N[C@@H](CC(=O)O)C(=O)NCC(=O)N[C@H](CO)C(=O)N[C@@H]([C@H](C)CC(=O)O)C(=O)N[C@@H](CC(=O)c2ccccc2N)C(=O)O[C@@H]1C` ?
4
